test system: HOP-62 NSCLC; test: NCI-60 one-dose screen, 48 h; conditions: 10 µM unless noted
The panel holds about 83,000 compounds, 20% with a hit somewhere; the sample as a whole holds those more often. Active and inactive are the calls of the source. How the source made its calls: active means growth percent below 10; inactive means the rest.
One label from this list, please: active, inactive

Worked examples follow.
[[record]]
compound_structure_string = "CCN(CC)CCN1CC(O)=C(c2nc(-c3ccc(Cl)cc3)cs2)C1=N"
label_value = "active"

[[record]]
compound_structure_string = "CCCCNC(=O)Oc1ccc2c(=O)c3sc4c(=O)c5ccccc5c(=O)c4c3c(=O)c2c1"
label_value = "active"

[[record]]
compound_structure_string = "Cc1cc(NCc2cc(Nc3ccnc4cc(Cl)ccc34)ccc2F)nc(Cl)n1"
label_value = "inactive"


Please indicate how the test categorized Cc1ccc2nc(NC(=O)CSc3nc(-c4ccccc4)c(C#N)c(=O)n3Cc3ccccc3)sc2c1 .
inactive

* * *

This listing pairs molecules with measured growth.
system: PC-3 prostate; experiment: NCI-60 one-dose screen, 48 h (100 = growth as untreated, 0 = no growth, -100 = all killed); conditions: 10 µM unless noted
The panel holds about 83,000 compounds, 20% with a hit somewhere; the sample as a whole holds those more often. Calls of active or inactive are those of the source. The calls were made as follows: active = growth percent below 10; inactive = the rest.

Answered examples (5):
[[record]]
molecule = "Cn1c(I)c(C#C[Si](C)(C)C)c(=O)n(C(=O)c2ccccc2)c1=O"
assay_system = "PC-3 prostate"
assay_endpoint = "growth"
endpoint_value = "-56.8% (active)"

[[record]]
molecule = "CC(=O)O[C@]1(C(C)=O)CCC2C3C[C@H](C)C4=CC(=O)CC[C@]4(C)C3CC[C@@]21C (some centres not stated)"
assay_system = "PC-3 prostate"
assay_endpoint = "growth"
endpoint_value = "68.4% (inactive)"

[[record]]
molecule = "COc1cc(N2C(=O)c3nccnc3C2=O)cc(OC)c1OC"
assay_system = "PC-3 prostate"
assay_endpoint = "growth"
endpoint_value = "98.7% (inactive)"

[[record]]
molecule = "NC(N)=Nc1nc2ccccc2n2c1nc1ccccc12"
assay_system = "PC-3 prostate"
assay_endpoint = "growth"
endpoint_value = "48.5% (inactive)"

[[record]]
molecule = "Cn1cc(-c2csc(-c3cccc(F)c3)n2)c2cccnc21"
assay_system = "PC-3 prostate"
assay_endpoint = "growth"
endpoint_value = "-42% [100 µM] (active)"


// returns reported growth for input Cc1ccc2nc(C)c(-c3nnc(SCc4ccc(C#N)cc4)o3)n2c1
109% (inactive)

Which growth is listed for O=C(NCCCNc1cc(-c2cn(-c3ccccc3)nc2-c2cccc(O)c2)ccn1)c1cccc(O)c1 ?
39.4% (inactive)

* * *

test system: DU-145 prostate; assay: NCI-60 one-dose screen, 48 h; conditions: 10 µM unless noted
The panel holds about 83,000 compounds, 20% with a hit somewhere; the sample as a whole holds those more often. The source made the active and inactive calls. Rule for the calls: active = growth percent below 10; inactive = the rest.
Pick one: class 1 for active, class 0 for inactive

See these solved cases before continuing.
[[record]]
molecule = "CCN(CC)c1nc(SCC(=O)Nc2nc3ccc(C)cc3s2)nc(-c2ccccc2)c1C#N"
label_value = "class 0"

[[record]]
molecule = "O=c1c2cc(F)ccc2sc2c(NCCN3CCCCC3)nc3ccccc3c12"
label_value = "class 0"

[[record]]
molecule = "COc1ccc(N=C(c2ccccc2)C2C(=O)c3ccccc3C2=O)cc1"
label_value = "class 0"

[[record]]
molecule = "Clc1cccc(Cl)c1C(Nc1nc2ccccc2s1)Nc1nc2ccccc2s1"
label_value = "class 0"


What did the test return for C[C@]12CC[C@@H]3c4cc(OC(F)F)c(O)cc4CC[C@H]3[C@@H]1CC[C@@H]2OS(N)(=O)=O ?
class 1

Dear all, I need the recorded test outcome for O=C(Nc1cccc2c(O)c(N=Nc3ccc(S(=O)(=O)Nc4nccs4)cc3)cc(N=Nc3ccc(S(=O)(=O)Nc4nccs4)cc3)c12)C(Cl)Cl , thank you.
class 0

Could you please tell me the result logged for CN(C)CC1C(=O)O[C@H]2[C@H]1CC/C(COC(=O)c1cc3ccccc3[nH]1)=C\CC[C@@]1(C)O[C@@H]21 (some centres undefined) in this assay?
class 1

Kindly provide the recorded test outcome for the following molecule: Cc1cc(/C=C\c2ccc3ccccc3[n+]2C)c(O)c2ncccc12
class 0

Assay result, entry COc1ccc2cc(-c3cc(OC)c(OC)c(OC)c3)c(=O)oc2c1 — outcome?
class 0

* * *

system: SNB-19 CNS; assay: NCI-60 one-dose screen, 48 h (100 = growth as untreated, 0 = no growth, -100 = all killed); settings: 10 µM unless noted
About 83,000 compounds went through this panel and 20% of them were active in at least one assay; those are over-represented in the sample as a whole.
Mark criterion met only for growth values smaller than 20%; exact matches and larger values are criterion not met.

Take a look at these entries with their results.
[[record]]
compound_structure_string = "O=C(/C=C/c1ccco1)c1ccc(Nc2nc(Nc3ccc(F)cc3)nc(Nc3ccc(Cl)cc3)n2)cc1"
assay_system = "SNB-19 CNS"
label_value = "criterion not met"

[[record]]
compound_structure_string = "CC/C=C\\C[C@H](O)C/C=C1/C(=O)C=C[C@@H]1C/C=C\\CCCCO"
assay_system = "SNB-19 CNS"
label_value = "criterion not met"


Below 20% on growth? Entry COc1ccc(/C=N\NC(=O)c2cc(-c3ccc(Br)cc3)n(-c3ccc(S(N)(=O)=O)cc3)n2)cc1
criterion not met

Is it true that growth reported for Cc1ccc(CCC(=O)Nc2ncc(Cc3cc(Cl)ccc3Cl)s2)o1 is less than 20%?
criterion not met

Problem: For the compound O=C(N/N=C/C=C/c1ccc([N+](=O)[O-])o1)c1cc2ccccc2cc1O , is growth under 20%?
criterion met

growth under 20%? Item: CC(=O)c1ccc(NCC(=O)Nc2ccccn2)cc1
criterion not met

Item Cc1ccc(/C=C/c2c(C(=O)/C=C/c3ccc(Cl)cc3)c(C)nc3ccccc23)cc1 : growth beneath 20%, strictly?
criterion met

* * *

tested on: 786-0 renal; test: NCI-60 one-dose screen, 48 h (100 = growth as untreated, 0 = no growth, -100 = all killed); details: 10 µM unless noted
This is part of a sample that, as a whole, favours compounds with a hit. Of some 83,000 tested, about 20% had one in any assay.
Below: a set of entries, each annotated with reported growth.
Quick note: give the figure in %, leave out the unit.

[[record]]
molecule = "O=c1c2cc(F)ccc2sc2c(NCCN3CCCCC3)nc3ccccc3c12"
uom = "%"
endpoint_value = 41

[[record]]
molecule = "Cc1cccc(Cc2cnc(NC(=O)c3ccc4nnsc4c3)s2)c1"
uom = "%"
endpoint_value = 96


GET /values?readout=growth&item= CS(=O)c1cccc(-c2ccc3nc(N)n(-c4ccc(C(F)(F)F)cc4)c(=O)c3c2)c1 (stereo unspecified)
97.1

Please report the recorded growth for COc1ccc(C2C(c3nn[nH]n3)=C(N)Oc3c2ccc2ccccc32)cc1 (stereo unspecified) .
79.2

Looking for the measured growth of N/C(=N/N=C/c1ccccc1)N/N=C\c1ccccc1 , can you help?
56.2

Need growth, item CC(C)CC(NC(=O)CN(Cc1ccccc1)S(C)(=O)=O)C(=O)O (stereo unspecified)
93.6

// query growth value for entry CCN1C(=O)N(CC)C2Nn3c(s/c(=C\c4ccc(Cl)cc4Cl)c3=O)=NC21 (stereo unspecified)
34

Name the reported growth value associated with the molecule COc1cc(/C=C/C(=O)c2c(C)nc3ccccc3c2/C=C/c2ccc(C)cc2)cc(OC)c1OC
28.4

* * *

tested on: SK-MEL-5 melanoma; assay: NCI-60 one-dose screen, 48 h (100 = growth as untreated, 0 = no growth, -100 = all killed); settings: 10 µM unless noted
This is part of a sample that, as a whole, favours compounds with a hit. Of some 83,000 tested, about 20% had one in any assay. Calls of active or inactive are those of the source. Rule for the calls: active = growth percent below 10; inactive = the rest.
Measured growth, listed per entry.

[[record]]
compound = "COc1ccc2c(c1)CCCN2c1c2ccccc2nc2ccccc12"
endpoint_value = "2.04% (active)"

[[record]]
compound = "COc1cc(C(=O)/C=C/c2c(C(F)(F)F)nc3sccn23)cc(OC)c1OC"
endpoint_value = "5.95% (active)"

[[record]]
compound = "C[C@@H]1N=C(c2ccc3ccccc3n2)Nc2nc3ccccn3c2C1=O"
endpoint_value = "94.3% (inactive)"

[[record]]
compound = "O=C1/C(=C/c2ccc(Br)cc2)C=C(c2ccccc2)N1CCc1ccccc1"
endpoint_value = "77.1% (inactive)"

[[record]]
compound = "COc1ccc(-c2csc(C3=C(O)CN(CCCN4CCCC4=O)C3=N)n2)cc1OC"
endpoint_value = "89.2% (inactive)"

[[record]]
compound = "CC(C)Sc1nc(NNC(N)=S)c(C#N)c(-c2ccc(F)cc2)n1"
endpoint_value = "93.3% (inactive)"


Query: growth; subject: CNC(=O)c1cc(Oc2cccc3nc(Nc4ccc(F)c(Cl)c4)ccc23)ccn1
12.3% (inactive)

For the compound shown here, COC(=O)c1c2c(c(C)[n+]([O-])c1C)C(=O)C(NCc1ccc(F)cc1)=CC2=O , give the reported growth.
-47.9% (active)

Can you look up the measured growth of Nc1n[nH]c2cc(F)c([C@@H]3Nc4c(F)cc5[nH]ncc5c4[C@H]4C5CCC(C5)[C@@H]34)cc12 (some centres not stated) for me?
8.05% (active)
